# Test system: DU-145 prostate
# assay-summary: NCI-60 one-dose screen, 48 h (100 = growth as untreated, 0 = no growth, -100 = all killed)
# condition-notes: 10 µM unless noted
About 83,000 compounds went through this panel and 20% of them were active in at least one assay; those are over-represented in the sample as a whole. The source made the active and inactive calls. How the source made its calls: active means growth percent below 10; inactive means the rest.
parameter-measured: growth

Q. Given C[C@]12CC[C@H](O)CC1=CC[C@@H]1[C@@H]2CC[C@]2(C)C(=O)CC[C@@H]12 , state its recorded growth.
A. 122% (inactive)

Q. Given CC[C@@]1(O)C[C@H](OC2CC(N(C)C)C(OC3CC(O)C(OC4CCC(=O)C(C)O4)C(C)O3)C(C)O2)c2c(cc3c(c2O)C(=O)c2c(O)ccc(O)c2C3=O)[C@H]1C(=O)OC (some centres undefined) , state its recorded growth.
A. 1.38% (active)

Q. Given COc1ccc(OC)c(/C=C/[N+](=O)[O-])c1 , state its recorded growth.
A. 19.8% (inactive)

Q. Given CCOC(=O)C(NC(=O)C(Cc1ccc(N(CCCl)CCCl)cc1)NC(C)=O)C(C)C (centres undefined) , state its recorded growth.
A. 99.7% (inactive)

---

# System: HCC-2998 colon
# assay-summary: NCI-60 one-dose screen, 48 h (100 = growth as untreated, 0 = no growth, -100 = all killed)
# condition-notes: 10 µM unless noted
Compounds without any hit were thinned out: in the full panel of roughly 83,000, 20% have a hit. Active and inactive are the calls of the source. The calls were made as follows: active = growth percent below 10; inactive = the rest.
For each entry below, report its growth value.

Q. Given CC[C@@]1(O)C[C@H](OC2CC(N(C)C)C(OC3CC(O)C(OC4CCC(=O)C(C)O4)C(C)O3)C(C)O2)c2c(cc3c(c2O)C(=O)c2c(O)ccc(O)c2C3=O)[C@H]1C(=O)OC (stereo partly specified) , state its recorded growth.
A. -77.5% (active)

Q. Given COC1CC(CC2CCC(C)C(C(C)C(=O)O)O2)OC2(OC(C)(C3CCC(C)(C4OC(C5OC(O)(CO)C(C)CC5C)CC4C)O3)CC2C)C1C (stereo unspecified) , state its recorded growth.
A. -10% (active)

Q. Given Cc1c(N)nc([C@H](CC(N)=O)NC[C@H](N)C(N)=O)nc1C(=O)N[C@H](C(=O)N[C@H](C)[C@@H](O)[C@H](C)C(=O)N[C@H](C(=O)NCCc1nc(-c2nc(C(=O)NCCC[S+](C)C)cs2)cs1)[C@@H](C)O)C(OC1OC(CO)C(O)C(O)C1OC1OC(CO)C(O)C(OC(N)=O)C1O)c1cnc[nH]1 (stereo partly specified) , state its recorded growth.
A. 5.84% [2.5 µM] (active)

Q. Given NCCc1ccc(OCc2ccccc2)c(OCc2ccccc2)c1 , state its recorded growth.
A. 34.6% (inactive)

Q. Given C[C@H]1CCC/C=C/[C@@H]2C[C@H](O)C[C@H]2[C@H](O)/C=C/C(=O)O1 , state its recorded growth.
A. -49.5% (active)

Q. Given CC[C@@]1(O)C[C@H](OC2CC(N(C)C)C(O)C(C)O2)c2c(O)c3c(c(O)c2[C@H]1OC1CC(N(C)C)C(O)C(C)O1)C(=O)c1cccc(O)c1C3=O (stereo partly specified) , state its recorded growth.
A. -83.6% (active)

Q. Given C[C@]12CC[C@H](O)CC1=CC[C@@H]1[C@@H]2CC[C@]2(C)C(=O)CC[C@@H]12 , state its recorded growth.
A. 90.7% (inactive)

Q. Given CC[C@@]1(O)C(=O)OCc2c1cc1n(c2=O)Cc2cc3ccccc3nc2-1 , state its recorded growth.
A. -73.8% (active)

Q. Given COc1ccc(OC)c(/C=C/[N+](=O)[O-])c1 , state its recorded growth.
A. -82.4% (active)

Q. Given CC[C@](O)(C(=O)O)c1cc2n(c(=O)c1CO)Cc1cc3ccccc3nc1-2 , state its recorded growth.
A. -61.6% (active)

Q. Given CCC1(O)CC(OC2CC(N(C)C)C(OC3CC4OC5CC(=O)C(C)OC5OC4C(C)O3)C(C)O2)c2c(cc3c(c2O)C(=O)c2c(O)ccc(O)c2C3=O)C1C(=O)OC (stereo unspecified) , state its recorded growth.
A. -89.9% (active)

---

# Test system: SF-539 CNS
# assay-summary: NCI-60 one-dose screen, 48 h (100 = growth as untreated, 0 = no growth, -100 = all killed)
# condition-notes: 10 µM unless noted
The panel holds about 83,000 compounds, 20% with a hit somewhere; the sample as a whole holds those more often.
parameter-measured: growth (%)
Give the number; % is assumed, so skip it.

Q. Given COC1CC(CC2CCC(C)C(C(C)C(=O)O)O2)OC2(OC(C)(C3CCC(C)(C4OC(C5OC(O)(CO)C(C)CC5C)CC4C)O3)CC2C)C1C (stereo not given) , state its recorded growth.
A. -49.1

Q. Given CC[C@@]1(O)C[C@H](OC2CC(N(C)C)C(O)C(C)O2)c2c(O)c3c(c(O)c2[C@H]1OC1CC(N(C)C)C(O)C(C)O1)C(=O)c1cccc(O)c1C3=O (stereo not given in full) , state its recorded growth.
A. -48.9

Q. Given CC1=C(CO)C2=C(C)C3(CC3)[C@@](C)(O)C(=O)C2=C1 , state its recorded growth.
A. -62.8

Q. Given C[C@H]1CCC/C=C/[C@@H]2C[C@H](O)C[C@H]2[C@H](O)/C=C/C(=O)O1 , state its recorded growth.
A. 27.1

Q. Given Cc1cc(N=Nc2ccccc2C)ccc1N , state its recorded growth.
A. 48.9

---

# System: SK-MEL-5 melanoma
# assay-summary: NCI-60 one-dose screen, 48 h
# condition-notes: 10 µM unless noted
This is part of a sample that, as a whole, favours compounds with a hit. Of some 83,000 tested, about 20% had one in any assay. The source made the active and inactive calls. Rule for the calls: active = growth percent below 10; inactive = the rest.
Log the outcome using a class from True for active, False for inactive

Q. Recorded test call requested for CC[C@](O)(C(=O)O)c1cc2n(c(=O)c1CO)Cc1cc3ccccc3nc1-2
A. True

Q. Recorded test call requested for CC[C@@]1(O)C[C@H](OC2CC(N(C)C)C(O)C(C)O2)c2c(O)c3c(c(O)c2[C@H]1OC1CC(N(C)C)C(O)C(C)O1)C(=O)c1cccc(O)c1C3=O (stereo partly drawn)
A. True

Q. Recorded test call requested for CC1=C2C(=O)[C@H]3[C@@H](CC=C4C[C@@H](O)CC[C@@]43C)[C@@H]2CC[C@]12O[C@@H]1C[C@H](C)CN[C@H]1[C@H]2C
A. False

Q. Recorded test call requested for CN1CCN(c2ccc([N+](=O)[O-])c3no[n+]([O-])c23)CC1
A. True

Q. Recorded test call requested for NCCc1ccc(OCc2ccccc2)c(OCc2ccccc2)c1
A. False

Q. Recorded test call requested for Cc1cc(N=Nc2ccccc2C)ccc1N
A. False

Q. Recorded test call requested for C[C@H]1CCC/C=C/[C@@H]2C[C@H](O)C[C@H]2[C@H](O)/C=C/C(=O)O1
A. True

Q. Recorded test call requested for CC[C@@]1(O)C[C@H](OC2CC(N(C)C)C(OC3CC(O)C(OC4CCC(=O)C(C)O4)C(C)O3)C(C)O2)c2c(cc3c(c2O)C(=O)c2c(O)ccc(O)c2C3=O)[C@H]1C(=O)OC (stereo partly drawn)
A. True

---

# Tested on: SK-MEL-28 melanoma
# assay-summary: NCI-60 one-dose screen, 48 h
# condition-notes: 10 µM
Compounds without any hit were thinned out: in the full panel of roughly 83,000, 20% have a hit. Calls of active or inactive are those of the source. The calls were made as follows: active = growth percent below 10; inactive = the rest.
Log the outcome using a class from active, inactive

Q. Recorded test call requested for CC[n+]1c(-c2ccccc2)c2cc(N)ccc2c2ccc(N)cc21
A. active

Q. Recorded test call requested for NCCc1ccc(OCc2ccccc2)c(OCc2ccccc2)c1
A. inactive

Q. Recorded test call requested for COc1ccc(OC)c(/C=C/[N+](=O)[O-])c1
A. active

Q. Recorded test call requested for O=C1c2ccccc2C(=O)C(Cl)C1Cl (stereo not drawn)
A. inactive

Q. Recorded test call requested for COc1cccc2c1cc([N+](=O)[O-])c1c(C(=O)O)cc3c(c12)OCO3
A. inactive

Q. Recorded test call requested for Oc1cc[c]([Hg][Cl])cc1
A. inactive

Q. Recorded test call requested for CCCCCCCCCCCC1CCCC(C)N1 (stereo not drawn)
A. inactive

Q. Recorded test call requested for CCC(=O)OC1CCn2c1nc1c2C(=O)C(C)=C(N2CC2)C1=O (stereo not drawn)
A. active

---

# System: PC-3 prostate
# assay-summary: NCI-60 one-dose screen, 48 h
# condition-notes: 10 µM unless noted
The panel holds about 83,000 compounds, 20% with a hit somewhere; the sample as a whole holds those more often. Activity calls are given as the source filed them. How the source made its calls: active means growth percent below 10; inactive means the rest.
Log the outcome using a class from yes (active), no (inactive)

Q. Recorded test call requested for COc1ccc(OC)c(/C=C/[N+](=O)[O-])c1
A. yes

Q. Recorded test call requested for NCCc1ccc(OCc2ccccc2)c(OCc2ccccc2)c1
A. no

Q. Recorded test call requested for CC[C@@]1(O)C(=O)OCc2c1cc1n(c2=O)Cc2cc3ccccc3nc2-1
A. yes

Q. Recorded test call requested for CCC(=O)OC1CCn2c1nc1c2C(=O)C(C)=C(N2CC2)C1=O (centres undefined)
A. yes

Q. Recorded test call requested for Cc1c(N)nc([C@H](CC(N)=O)NC[C@H](N)C(N)=O)nc1C(=O)N[C@H](C(=O)N[C@H](C)[C@@H](O)[C@H](C)C(=O)N[C@H](C(=O)NCCc1nc(-c2nc(C(=O)NCCC[S+](C)C)cs2)cs1)[C@@H](C)O)C(OC1OC(CO)C(O)C(O)C1OC1OC(CO)C(O)C(OC(N)=O)C1O)c1cnc[nH]1 (some centres undefined)
A. no

Q. Recorded test call requested for C[C@H]1CCC/C=C/[C@@H]2C[C@H](O)C[C@H]2[C@H](O)/C=C/C(=O)O1
A. yes

Q. Recorded test call requested for CCOC(=O)C(NC(=O)C(Cc1ccc(N(CCCl)CCCl)cc1)NC(C)=O)C(C)C (centres undefined)
A. no

Q. Recorded test call requested for O=C1c2ccccc2C(=O)C(Cl)C1Cl (centres undefined)
A. no

Q. Recorded test call requested for CCCCCCCCCCCC1CCCC(C)N1 (centres undefined)
A. no

Q. Recorded test call requested for COC1=C(C)C(=O)C2=C(C1=O)C(CO)N1C(C#N)C3CC4C(C1C2N1CCOC41)N3C (centres undefined)
A. yes

Q. Recorded test call requested for CC[n+]1c(-c2ccccc2)c2cc(N)ccc2c2ccc(N)cc21
A. no

Q. Recorded test call requested for CCC1(O)CC(OC2CC(N(C)C)C(OC3CC4OC5CC(=O)C(C)OC5OC4C(C)O3)C(C)O2)c2c(cc3c(c2O)C(=O)c2c(O)ccc(O)c2C3=O)C1C(=O)OC (centres undefined)
A. yes

Q. Recorded test call requested for COC1CC(CC2CCC(C)C(C(C)C(=O)O)O2)OC2(OC(C)(C3CCC(C)(C4OC(C5OC(O)(CO)C(C)CC5C)CC4C)O3)CC2C)C1C (centres undefined)
A. yes

Q. Recorded test call requested for Oc1cc[c]([Hg][Cl])cc1
A. no
